Target: Prostaglandin E2 receptor EP4 subtype (Homo sapiens)
Experiment: Antagonist activity at human prostanoid EP4 receptor expressed in HEK293 cells assessed as inhibition of PGE2-induced cAMP accumulation by scintillation proximity assay
Format: functional, cell-based
Note to self: use satisfied only for IC50 readings below 3 nM; a reading exactly at 3 nM still gets not satisfied.

Field: example entries. Status: answers known.
>>> assigned_category("C[C@H](NC(=O)c1cc(F)cc2ccn(Cc3cccc(Cl)c3)c12)c1ccc(C(=O)O)cc1")
"not satisfied"
>>> assigned_category("C[C@H](NC(=O)c1cccc2ccn(Cc3cc(Cl)cc(OC(F)(F)F)c3)c12)c1ccc(C(=O)O)cc1")
"satisfied"
>>> assigned_category("C[C@H](NC(=O)c1cc(Cl)cc2ccn(Cc3ccc(C(F)(F)F)cc3)c12)c1ccc(C(=O)O)cc1")
"satisfied"
>>> assigned_category("C[C@H](NC(=O)c1cccc2ccn(Cc3cccc(Cl)c3)c12)c1ccc(C(=O)O)cc1")
"not satisfied"

Task item: Identify whether the compound `O=C(O)c1ccc(C2(NC(=O)c3cc(Cl)cc4ccn(Cc5ccc(C(F)(F)F)cc5)c34)CC2)cc1` records IC50 below 3 nM.
Reply: satisfied

Task item: Does `C[C@H](NC(=O)c1cccc2ccn(Cc3ccc(C(F)(F)F)cc3)c12)c1ccc(C(=O)O)cc1` have IC50 strictly under 3 nM?
Reply: satisfied

Task item: Please indicate whether the reported IC50 of `C[C@H](NC(=O)c1cc(Cl)cc2ccn(Cc3cccc(Cl)c3)c12)c1ccc(C(=O)O)cc1` is strictly below 3 nM.
Reply: satisfied

Task item: Would you kindly verify if IC50 of `C[C@H](NC(=O)c1cccc2ccn(Cc3cccc(C(F)(F)F)c3)c12)c1ccc(C(=O)O)cc1` is strictly less than 3 nM?
Reply: not satisfied

Task item: Criterion: IC50 strictly below 3 nM. Is it met by `O=C(O)c1ccc(C2(NC(=O)c3cccc4ccn(Cc5ccc(C(F)(F)F)cc5)c34)CC2)cc1` ?
Reply: satisfied

====

Test: AUC (0 to 24 hrs) in Sprague-Dawley rat at 20 mg/kg, po
Format: ADME, organism-based
Set-up: time < 24 hr, dose 20 mg/kg, route oral
Conditions: plasma
assay_readout: AUC(0-t) at 24 h (µM·h)
// units = µM·h; emit number, no label

Task item: Tell me its AUC(0-t) at 24 h given `O=C(O)c1ccc(C2(NC(=O)c3cccc4ccn(Cc5ccc(C(F)(F)F)cc5)c34)CC2)cc1` as the entry.
Reply: 150

====

Molecular target: Prostaglandin E2 receptor EP4 subtype (Homo sapiens)
Experiment: Antagonist activity at human prostanoid EP4 receptor expressed in HEK293 cells assessed as inhibition of PGE2-induced cAMP accumulation by scintillation proximity assay in presence of 10% human serum
Type: functional, cell-based
assay_readout: IC50 (nM)
Report the value in nM with no unit label.

Task item: Give recorded IC50. `O=C(O)c1ccc(C2(NC(=O)c3cccc4ccn(Cc5ccc(C(F)(F)F)cc5)c34)CC2)cc1`
Reply: 1.8

====

Assay: Volume of distribution in Sprague-Dawley rat at 5 mg/kg, iv and 20 mg/kg, po
Type: ADME, organism-based
Details: in vivo
assay_readout: Vd (L/kg)
# number only, unit L/kg dropped from output

Task item: Please report Vd for the following compound: `O=C(O)c1ccc(C2(NC(=O)c3cccc4ccn(Cc5ccc(C(F)(F)F)cc5)c34)CC2)cc1`
Reply: 1

====

Recorded pKi values (Prostaglandin E2 receptor EP1 subtype (Homo sapiens, UniProt P34995)) are given below.
pKi: −log10 of the molar value.

// below: answered compounds
>>> value_observed("C[C@H](NC(=O)c1cccc2ccn(Cc3cccc(Cl)c3)c12)c1ccc(C(=O)O)cc1")
"≤ 5.60"
>>> value_observed("C[C@H](NC(=O)c1cccc2c(Cl)cn(Cc3cccc(Cl)c3)c12)c1ccc(C(=O)O)cc1")
"≤ 6.03"
>>> value_observed("O=C(O)c1ccc(C2(NC(=O)c3cc(Cl)cc4ccn(Cc5ccc(C(F)(F)F)cc5)c34)CC2)cc1")
"≤ 5.89"
>>> value_observed("C[C@H](NC(=O)c1cccc2ccn(Cc3cc(Cl)cc(OC(F)(F)F)c3)c12)c1ccc(C(=O)O)cc1")
"≤ 6.59"

Pending compound:
Task item: Enter recorded pKi with Prostaglandin E2 receptor EP1 subtype (Homo sapiens, UniProt P34995) for `C[C@H](NC(=O)c1cccc2ccn(Cc3ccc(C(F)(F)F)cc3)c12)c1ccc(C(=O)O)cc1` here.
Sequence (P34995 whole entry): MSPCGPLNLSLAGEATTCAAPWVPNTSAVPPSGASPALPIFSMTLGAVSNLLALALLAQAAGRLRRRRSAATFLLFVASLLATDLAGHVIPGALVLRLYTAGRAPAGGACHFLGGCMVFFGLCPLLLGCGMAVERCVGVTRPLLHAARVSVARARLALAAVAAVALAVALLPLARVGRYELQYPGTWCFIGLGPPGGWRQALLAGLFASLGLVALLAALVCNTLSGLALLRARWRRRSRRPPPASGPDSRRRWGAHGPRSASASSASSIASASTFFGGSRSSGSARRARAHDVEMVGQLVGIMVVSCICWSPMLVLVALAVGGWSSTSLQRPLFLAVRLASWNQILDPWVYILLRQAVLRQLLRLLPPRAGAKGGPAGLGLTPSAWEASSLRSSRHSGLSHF
Reply: ≤ 6.24

====

Biological target: Prostaglandin E2 receptor EP2 subtype (Homo sapiens, UniProt P43116)
Sequence (P43116 whole entry): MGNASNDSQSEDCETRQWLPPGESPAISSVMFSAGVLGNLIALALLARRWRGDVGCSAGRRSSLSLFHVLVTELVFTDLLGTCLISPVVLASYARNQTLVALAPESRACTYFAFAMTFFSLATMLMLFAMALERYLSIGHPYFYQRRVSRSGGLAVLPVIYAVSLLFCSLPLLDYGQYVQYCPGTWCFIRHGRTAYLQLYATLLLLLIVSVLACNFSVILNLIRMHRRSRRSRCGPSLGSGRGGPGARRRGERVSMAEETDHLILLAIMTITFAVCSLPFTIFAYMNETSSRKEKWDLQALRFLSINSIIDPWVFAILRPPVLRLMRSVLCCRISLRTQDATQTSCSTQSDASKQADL
pKi: −log10 of the molar value.
assay_readout: pKi

Worked set:
>>> value_observed("O=C(O)c1ccc(C2(NC(=O)c3cc(Cl)cc4ccn(Cc5ccc(C(F)(F)F)cc5)c34)CC2)cc1")
"≤ 5.89"
>>> value_observed("C[C@H](NC(=O)c1cccc2ccn(Cc3ccc(C(F)(F)F)cc3)c12)c1ccc(C(=O)O)cc1")
"≤ 6.24"
>>> value_observed("C[C@H](NC(=O)c1cc(Cl)cc2ccn(Cc3ccc(C(F)(F)F)cc3)c12)c1ccc(C(=O)O)cc1")
"≤ 7.00"

Turning now to a further compound:
Task item: Report value only: pKi, Prostaglandin E2 receptor EP2 subtype (Homo sapiens, UniProt P43116), `C[C@H](NC(=O)c1cccc2ccn(Cc3cc(Cl)cc(OC(F)(F)F)c3)c12)c1ccc(C(=O)O)cc1`
Reply: ≤ 6.59

====

Molecular target: Prostaglandin E2 receptor EP4 subtype (Homo sapiens, UniProt P35408)
Sequence (P35408 whole entry): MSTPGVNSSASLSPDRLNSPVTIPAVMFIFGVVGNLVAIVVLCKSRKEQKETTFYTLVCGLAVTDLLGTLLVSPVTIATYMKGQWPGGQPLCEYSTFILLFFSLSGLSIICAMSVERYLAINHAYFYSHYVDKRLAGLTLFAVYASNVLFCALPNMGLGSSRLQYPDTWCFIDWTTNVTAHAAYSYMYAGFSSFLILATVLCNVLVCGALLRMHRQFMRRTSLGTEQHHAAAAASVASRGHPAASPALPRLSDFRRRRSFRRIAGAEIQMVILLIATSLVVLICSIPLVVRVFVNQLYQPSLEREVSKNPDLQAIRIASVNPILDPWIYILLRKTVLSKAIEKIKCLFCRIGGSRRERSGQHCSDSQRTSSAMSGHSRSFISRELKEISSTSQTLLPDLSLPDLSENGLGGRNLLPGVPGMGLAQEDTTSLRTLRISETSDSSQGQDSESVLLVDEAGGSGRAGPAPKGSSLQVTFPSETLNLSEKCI
Assay: Displacement of [3H]PGE2 from human prostanoid EP4 receptor expressed in HEK293-EBNA cells after 60 mins by scintillation counting in presence of 10% human serum
Assay type: cell-based
assay_readout: Ki (pM)
Note: unit pM is implicit; provide only the numeric part.

Task item: Tell me Ki reported for `O=C(O)c1ccc(C2(NC(=O)c3cccc4ccn(Cc5ccc(C(F)(F)F)cc5)c34)CC2)cc1`
Reply: 340

====

Biological target: Prostaglandin E2 receptor EP4 subtype (Homo sapiens, UniProt P35408)
Experiment: Displacement of [3H]PGE2 from human prostanoid EP4 receptor expressed in HEK293-EBNA cells after 60 mins by scintillation counting
Type: cell-based
assay_readout: pKi
Hey, just a heads up that pKi is the negative log base 10 of the concentration in molar.

These solved cases illustrate the format of a correct answer.
>>> value_observed("C[C@H](NC(=O)c1cccc2ccn(Cc3cccc(C(F)(F)F)c3)c12)c1ccc(C(=O)O)cc1")
8.32
>>> value_observed("C[C@H](NC(=O)c1cc(Cl)cc2ccn(Cc3cccc(Cl)c3)c12)c1ccc(C(=O)O)cc1")
9.09
>>> value_observed("Cc1cn(Cc2cccc(Cl)c2)c2c(C(=O)N[C@@H](C)c3ccc(C(=O)O)cc3)cccc12")
7.40

With those in mind, consider the next molecule.
Task item: Quickly give me recorded pKi for `C[C@H](NC(=O)c1cccc2c(Cl)cn(Cc3cccc(Cl)c3)c12)c1ccc(C(=O)O)cc1`
Reply: 7.70

====

Assay: Plasma clearance in Sprague-Dawley rat at 5 mg/kg, iv and 20 mg/kg, po
Assay type: ADME, organism-based
assay_readout: clearance (mL/min/kg)
Field format: number, assumed mL/min/kg, no unit text.

Task item: Retrieve clearance measured for `O=C(O)c1ccc(C2(NC(=O)c3cccc4ccn(Cc5ccc(C(F)(F)F)cc5)c34)CC2)cc1` and print it.
Reply: 3.7

====

Biological target: Prostaglandin D2 receptor (Homo sapiens)
Sequence (Q13258 whole entry): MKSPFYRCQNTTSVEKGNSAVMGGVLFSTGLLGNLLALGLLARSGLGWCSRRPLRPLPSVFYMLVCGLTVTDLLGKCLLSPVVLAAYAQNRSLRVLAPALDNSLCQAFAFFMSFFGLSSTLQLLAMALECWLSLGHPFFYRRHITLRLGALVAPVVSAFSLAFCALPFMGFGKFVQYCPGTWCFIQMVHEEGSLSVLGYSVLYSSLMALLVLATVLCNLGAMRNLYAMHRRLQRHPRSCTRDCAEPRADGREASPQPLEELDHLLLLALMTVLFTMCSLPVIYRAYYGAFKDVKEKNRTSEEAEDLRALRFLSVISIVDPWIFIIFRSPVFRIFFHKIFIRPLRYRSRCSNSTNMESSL
Experiment: Displacement of [3H]PGD2 from human Prostanoid DP1 receptor expressed in HEK293-EBNA cells after 60 mins by scintillation counting
Returns: string. Value is MET if measured Ki is below 900 nM, and NOT MET if it is greater than or equal to it.

Worked examples, 5 compounds total:
>>> assigned_category("Cc1cn(Cc2cccc(Cl)c2)c2c(C(=O)N[C@@H](C)c3ccc(C(=O)O)cc3)cccc12")
"NOT MET"
>>> assigned_category("C[C@H](NC(=O)c1cccc2ccn(Cc3cccc(Cl)c3)c12)c1ccc(C(=O)O)cc1")
"MET"
>>> assigned_category("C[C@H](NC(=O)c1cc(Cl)cc2ccn(Cc3ccc(C(F)(F)F)cc3)c12)c1ccc(C(=O)O)cc1")
"MET"
>>> assigned_category("O=C(O)c1ccc(C2(NC(=O)c3cccc4ccn(Cc5ccc(C(F)(F)F)cc5)c34)CC2)cc1")
"NOT MET"
>>> assigned_category("C[C@H](NC(=O)c1cccc2ccn(Cc3ccc(C(F)(F)F)cc3)c12)c1ccc(C(=O)O)cc1")
"NOT MET"

Task item: Identify whether the compound `O=C(O)c1ccc(C2(NC(=O)c3cc(Cl)cc4ccn(Cc5ccc(C(F)(F)F)cc5)c34)CC2)cc1` records Ki below 900 nM.
Reply: MET

Task item: Given the entry `C[C@H](NC(=O)c1cc(Cl)cc2ccn(Cc3cccc(Cl)c3)c12)c1ccc(C(=O)O)cc1` , would its reported Ki be below 900 nM?
Reply: MET
